Where do these numbers come from? They come from ChEMBL document CHEMBL1201862.

test system: SK-MEL-5; assay: NCI tumour cell line growth inhibition, 48 h
The source made the active and inactive calls. Cut-off read from the data, not from the text of the source: active = GI50 up to about 1.1 µM and inactive = higher.
Write down the outcome that applies. Available outcomes: active, inactive

// query Assay outcome for COC1(c2cccs2)c2ccccc2C(OC)(c2cccs2)c2ccccc21 (stereo not given) : what was it?
// result inactive

// query Assay outcome for COCC(O)CN1C(N)=NC(O)C1O (stereo not given) : what was it?
// result inactive

// query Assay outcome for C[N+]12C=CC=C1C(N1CCCC1)c1scc(-c3ccccc3)c12 (stereo not given) : what was it?
// result inactive

// query Assay outcome for COc1ccc(N2C(=O)C3c4[nH]c5ccc(OCc6ccccc6)cc5c4C4CCC(C(C)(C)C)CC4C3C2=O)cc1 (stereo not given) : what was it?
// result inactive

// query Assay outcome for `c1ccc2sc(SSSc3nc4ccccc4s3)nc2c1` : what was it?
// result inactive

// query Assay outcome for Oc1ccc(O)c(CNc2ccc(C(O)C(F)(F)F)cc2)c1 (stereo not given) : what was it?
// result inactive

// query Assay outcome for CC(C)CCC1CC2C(=O)N(c3ccccc3)C(=O)C2c2[nH]c3ccccc3c21 (stereo not given) : what was it?
// result active

// query Assay outcome for `COc1cccc2c(Nc3ccc(S(=O)(=O)N=C(N)N)cc3)c3ccc([N+](=O)[O-])cc3nc12` : what was it?
// result inactive

// query Assay outcome for `Cc1cc(C(=O)N2CCN(Cc3ccccc3)CC2)c(C)o1` : what was it?
// result inactive

// query Assay outcome for CCOc1cc(C2CC(c3ccc(NS(=O)(=O)c4cc([N+](=O)[O-])ccc4C)cc3)=NN2S(=O)(=O)c2cc([N+](=O)[O-])ccc2C)ccc1O (stereo not given) : what was it?
// result inactive

// query Assay outcome for O=C1NC(Cc2ccccc2)C(=O)N2CCCC12 (stereo not given) : what was it?
// result inactive

// query Assay outcome for COc1cc(C(C)c2cc3c(cc2OCCO)OCO3)cc(OC)c1OC (stereo not given) : what was it?
// result active

// query Assay outcome for N#Cc1cc2c(n(C3OC(CO)C(O)C(O)C3O)c1=S)CCCCCC2 (stereo not given) : what was it?
// result inactive

// query Assay outcome for CCOC(=O)C1(Cc2ccccc2)CCN(C(=O)c2ccccc2)C2C1C2(Cl)Cl (stereo not given) : what was it?
// result inactive

// query Assay outcome for COC(=O)CN(CC(O)C(NC(C)=O)C(O)C=O)C(=O)OCc1ccccc1 (stereo not given) : what was it?
// result inactive

// query Assay outcome for `NC(=S)NNc1c([N+](=O)[O-])cnn(-c2ccccc2)c1=O` : what was it?
// result inactive

// query Assay outcome for `CC(C)(C)c1ccc(Oc2ccc(C#N)c(C#N)c2)c(C(C)(C)C)c1` : what was it?
// result inactive

// query Assay outcome for C=C1C2C[C@@H]3O[C@H]4C[C@H]5O[C@@]6(C[C@@H]7O[C@]8(C[C@H](C)[C@@H]9O[C@@H]%10CC(C=O)O[C@@H]%10C[C@@H]9O8)C[C@H](C)[C@@H]7O6)C[C@H]5O[C@H]4[C@H](C)[C@H]3OC(=O)C[C@H]3CC[C@@H]4OC5[C@H]6O[C@]7(CC[C@H]8CC(=C)[C@H](CC[C@@H](C[C@H]1C)O2)O8)CC6O[C@@H]5[C@@H](O7)[C@H]4O3 (stereo not given in full) : what was it?
// result active

// query Assay outcome for `COc1cccc(/C=N/NC(=O)CSCC(=O)N/N=C/c2cccc(OC)c2OC)c1OC` : what was it?
// result inactive

// query Assay outcome for `Oc1cc(Br)cc2cc(Br)cnc12` : what was it?
// result inactive

###

Answer each item with its documented GI50.
test system: HOP-92; test: NCI tumour cell line growth inhibition, 48 h
Activity calls are given as the source filed them. Rule as the data show it: active = GI50 up to about 1.1 µM and inactive = higher.

// query Entry CC(C)(C)[Si](C)(C)OCC1CCC(n2cnc3c(N)ncnc32)O1 (stereo not drawn) needs its GI50 filled in; supply it.
// result > 100 µM (inactive)

// query Entry `COC(=O)c1c(C)cccc1/C=C1\Cc2ccc(C)c(C)c2C1=O` needs its GI50 filled in; supply it.
// result 74.3 µM (inactive)

// query Entry N#CC(/C(=N\NC(N)=S)C(=O)NC1C2CC3CC(C2)CC1C3)c1ccc(Cl)cc1 (stereo not drawn) needs its GI50 filled in; supply it.
// result > 100 µM (inactive)

// query Entry CCN(CC)CC(C(=O)Nc1c(C)cccc1C)/C(C)=N\NC(=S)NN (stereo not drawn) needs its GI50 filled in; supply it.
// result > 100 µM (inactive)

// query Entry N#Cc1cc2c(n(C3OC(CO)C(O)C(O)C3O)c1=S)CCCCCC2 (stereo not drawn) needs its GI50 filled in; supply it.
// result > 100 µM (inactive)

// query Entry `COc1cc(C2C(C(=O)Nc3cc(F)c(F)cc3F)=C(C)NC(C)=C2C(=O)Nc2cc(F)c(F)cc2F)ccc1O` needs its GI50 filled in; supply it.
// result 0.982 µM (active)

// query Entry COc1ccc(C2C3=C(COC3=O)Oc3cc4c(cc32)OCO4)cc1OC (stereo not drawn) needs its GI50 filled in; supply it.
// result 39.4 µM (inactive)

// query Entry CCCCCCCC/C=C\CCCCCCCCNc1ccn(C2OC(COP(=O)(O)OC3CC(n4cc(F)c(=O)[nH]c4=O)OC3CO)C(O)C2O)c(=O)n1 (stereo not drawn) needs its GI50 filled in; supply it.
// result 7.93 µM (inactive)

// query Entry Cc1ccc(NC(=O)CC2Sc3ccccc3NC2=O)c(C)c1 (stereo not drawn) needs its GI50 filled in; supply it.
// result 17.4 µM (inactive)

// query Entry COCC(O)CN1C(N)=NC(O)C1O (stereo not drawn) needs its GI50 filled in; supply it.
// result > 100 µM (inactive)

// query Entry COc1cc(C2c3[nH]c4ccccc4c3[C@@H](Nc3ccc(F)cc3)[C@H]3COC(=O)N23)cc(OC)c1O (stereo partly drawn) needs its GI50 filled in; supply it.
// result 2.26 µM (inactive)

// query Entry CC(O)CNC(=O)Nc1c(C(F)(F)F)cc(-c2ccccc2)[nH]c1=O (stereo not drawn) needs its GI50 filled in; supply it.
// result > 100 µM (inactive)

// query Entry `COc1ccc(/C=N/n2c(=O)[nH]c3ccccc3c2=O)cc1` needs its GI50 filled in; supply it.
// result > 100 µM (inactive)

// query Entry `Cc1ccc(NC(=O)c2cccc([N+](=O)[O-])c2O)c([N+](=O)[O-])c1` needs its GI50 filled in; supply it.
// result 21.5 µM (inactive)

// query Entry `COC(=O)[C@@H]1c2cc3c(c(O)c2[C@@H](OC)C[C@@]1(C)O)C(=O)c1c(O)cc2c(c1C3=O)OC1O[C@@]2(C)[C@H](O)[C@@H](N(C)C)[C@@H]1O` needs its GI50 filled in; supply it.
// result 0.0764 µM (active)

// query Entry `N#CC1(C#N)[C@@H]2CCC=C(Sc3ccccc3)[C@@H]21` needs its GI50 filled in; supply it.
// result 14.9 µM (inactive)

// query Entry O=C(O)CCCCCCCCC(=O)O [SEBACIC ACID] needs its GI50 filled in; supply it.
// result 5 µM (inactive)

// query Entry `Cc1ccc(O)c(C(c2cc(C)ccc2O)c2cc([N+](=O)[O-])ccc2O)c1` needs its GI50 filled in; supply it.
// result 14.8 µM (inactive)

// query Entry COC(=O)C(CC=O)C(=O)C(=O)Nc1cccc(C(F)(F)F)c1 (stereo not drawn) needs its GI50 filled in; supply it.
// result > 100 µM (inactive)

// query Entry `COc1ccc(-c2cc(=O)c3ccccc3o2)cc1N` needs its GI50 filled in; supply it.
// result 76.2 µM (inactive)

// query Entry C=CCCCC1(C)CCNC1=S (stereo not drawn) needs its GI50 filled in; supply it.
// result > 100 µM (inactive)

// query Entry CC(=O)Nc1ccc(C(=O)NN2C(=O)CSC2c2ccc([N+](=O)[O-])cc2)cc1 (stereo not drawn) needs its GI50 filled in; supply it.
// result > 100 µM (inactive)

// query Entry `COc1ccc2c(c1)-c1c(c3ccccc3n1CCN1CCCCC1)CC2` needs its GI50 filled in; supply it.
// result 21.8 µM (inactive)

// query Entry `NCCNc1nc(N2CCCC2)c2nc(Cl)c(NCc3ccccc3)nc2n1` needs its GI50 filled in; supply it.
// result 1.78 µM (inactive)

// query Entry `CCCCn1c2c(n(CCCC)c1=S)-c1c(n(CCCC)c(=S)n1CCCC)SSSS2` needs its GI50 filled in; supply it.
// result 0.301 µM (active)

// query Entry `c1cc2c(cc1NC1=NCCO1)CCC2` needs its GI50 filled in; supply it.
// result 7.5 µM (inactive)

// query Entry `O=C(N/N=C\c1ccc(Cl)cc1)Nc1ccc2ccccc2c1` needs its GI50 filled in; supply it.
// result 29.6 µM (inactive)

// query Entry `c1cc(-c2ccc(-c3ccsc3)s2)cs1` needs its GI50 filled in; supply it.
// result > 100 µM (inactive)

// query Entry `COc1cc(O)c2c(c1)O[C@@H]1OCC[C@H]21` needs its GI50 filled in; supply it.
// result > 100 µM (inactive)

// query Entry `O=C(O)/C=C/c1c[nH]cn1` needs its GI50 filled in; supply it.
// result > 500 µM (inactive)

// query Entry CC(NNC(=O)c1cc[n+]([BH2-]C#N)cc1)c1ccc(F)cc1 (stereo not drawn) needs its GI50 filled in; supply it.
// result > 100 µM (inactive)

// query Entry `C/C(=N\NC(N)=S)c1cccs1.OB(O)c1ccccc1` needs its GI50 filled in; supply it.
// result > 100 µM (inactive)

// query Entry `O=c1c2c3c(sc2nc2n1N=CN(c1ccc(Cl)cc1)C2)CCCC3` needs its GI50 filled in; supply it.
// result 8.47 µM (inactive)

// query Entry Nc1ncnc2c1ncn2C1(CO)OC(CO)C(O)C1O (stereo not drawn) needs its GI50 filled in; supply it.
// result > 100 µM (inactive)

// query Entry `CCOc1ccc2c(c1)c(=O)c1c(NCCN(CC)CC)ccc3nnn2c31` needs its GI50 filled in; supply it.
// result 29.2 µM (inactive)

// query Entry Cc1ccc(Cl)c(NC(=O)C(=O)C(C(=O)c2ccncc2)C2OC(=O)c3ccccc32)c1 (stereo not drawn) needs its GI50 filled in; supply it.
// result > 100 µM (inactive)

// query Entry O=C1CSC2=NC3=C(CSC/C3=C\c3ccccc3)C(c3ccccc3)N12 (stereo not drawn) needs its GI50 filled in; supply it.
// result 46 µM (inactive)

// query Entry `CN(CC(=O)O)S(=O)(=O)c1ccc(F)cc1` needs its GI50 filled in; supply it.
// result > 100 µM (inactive)

// query Entry Cc1ccc(S(=O)(=O)OC2C(C3COC(C)(C)O3)OC3OC(C)(C)OC32)cc1 (stereo not drawn) needs its GI50 filled in; supply it.
// result > 100 µM (inactive)

// query Entry `O=S1(=O)OCCOS(=O)(=O)C1I` needs its GI50 filled in; supply it.
// result > 100 µM (inactive)

// query Entry `CC(C)OP(=O)(OC(C)C)/C(Cl)=N/Nc1ccc([N+](=O)[O-])cc1` needs its GI50 filled in; supply it.
// result 44.9 µM (inactive)

// query Entry COc1cc2c(cc1OC)C1c3ccccc3CCN1CC2 (stereo not drawn) needs its GI50 filled in; supply it.
// result 59.3 µM (inactive)

// query Entry CCN(CC)C1C(=O)NC1C#Cc1ccccc1 (stereo not drawn) needs its GI50 filled in; supply it.
// result 18.9 µM (inactive)
